# target: human NK-2 receptor (Homo sapiens, UniProt P21452)
# Construct: expressed in transfected cells; host or cells: CHO cells (membrane preparation)
# Sequence (P21452 whole entry): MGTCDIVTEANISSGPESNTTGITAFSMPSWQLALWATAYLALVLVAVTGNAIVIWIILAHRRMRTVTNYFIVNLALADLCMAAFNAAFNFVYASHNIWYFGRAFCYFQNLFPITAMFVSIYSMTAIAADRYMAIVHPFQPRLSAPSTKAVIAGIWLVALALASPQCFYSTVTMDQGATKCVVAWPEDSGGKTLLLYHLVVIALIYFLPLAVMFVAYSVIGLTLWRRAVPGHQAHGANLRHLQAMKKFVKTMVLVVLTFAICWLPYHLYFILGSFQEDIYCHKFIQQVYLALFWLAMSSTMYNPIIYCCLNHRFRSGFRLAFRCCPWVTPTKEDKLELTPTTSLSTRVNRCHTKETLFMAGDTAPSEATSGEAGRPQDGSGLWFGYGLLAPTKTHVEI
# experiment.notes: Binding power of the test substances to NK-2 receptors in vitro ([3H]-SR 48968 displacement, CHO cell membranes)
# condition.parameters: displacement of [3H]-SR 48968, 90 min incubation, average of at least three measurements, 10^-6 to 10^-10 mol/l, read-out: pKi, affinity to human NK-2 receptors (converted)
readout.label: Ki

- compound: "CN(C[C@@H](CCN1CCN(C(c2ccsc2)[C@H](O)CO)CC1)c1ccc(Cl)c(Cl)c1)C(=O)c1ccccc1 (stereo partly drawn)"
  target: "human NK-2 receptor (Homo sapiens, UniProt P21452)"
  Ki: "≤ 0.001 µM"
- compound: "CN(C[C@@H](CCN1CCN(C(c2ccco2)[C@H](O)CO)CC1)c1ccc(Cl)c(Cl)c1)C(=O)c1ccccc1 (stereo partly drawn)"
  target: "human NK-2 receptor (Homo sapiens, UniProt P21452)"
  Ki: "≤ 0.001 µM"

Sample CN(CC(CCN1CCN(C(c2cccs2)[C@H](O)[C@@H](O)[C@H](O)CO)CC1)c1ccc(Cl)c(Cl)c1)C(=O)c1ccccc1 (mixture of isomers) — what was its Ki? ≤ 0.01 µM

Sample CN(CC(CCN1CCN(C(c2ccsc2)[C@@H](O)[C@@H](O)[C@H](O)[C@H](O)CO)CC1)c1ccc(Cl)c(Cl)c1)C(=O)c1ccccc1 (mixture of isomers) — what was its Ki? ≤ 0.01 µM

Sample CN(C[C@@H](CCN1CCN(C(c2ccco2)[C@H]2COC(=S)O2)CC1)c1ccc(Cl)c(Cl)c1)C(=O)c1ccccc1 (stereo partly drawn) — what was its Ki? ≤ 0.001 µM

###

# target: NK-2 receptors (Cavia porcellus, UniProt Q64077)
# Construct: the NK-2 receptors present in the gall-bladder preparations; from tissue; host or cells: Pirbright-White guinea pig: isolated gall-bladder (A2); anaesthetised whole animal (A3)
# Sequence (Q64077 1-402): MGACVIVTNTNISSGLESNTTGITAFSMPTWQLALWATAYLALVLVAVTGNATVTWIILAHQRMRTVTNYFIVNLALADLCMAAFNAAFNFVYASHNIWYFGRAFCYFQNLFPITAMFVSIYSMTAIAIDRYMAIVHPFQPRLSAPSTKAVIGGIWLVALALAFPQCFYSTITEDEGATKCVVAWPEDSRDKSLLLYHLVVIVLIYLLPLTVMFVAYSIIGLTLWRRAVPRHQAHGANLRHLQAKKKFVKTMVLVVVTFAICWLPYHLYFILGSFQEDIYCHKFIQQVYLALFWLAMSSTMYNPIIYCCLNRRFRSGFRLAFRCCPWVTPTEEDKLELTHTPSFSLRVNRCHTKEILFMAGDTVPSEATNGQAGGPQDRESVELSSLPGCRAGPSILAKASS
# experiment.notes: NK-2-receptor-antagonistic effectiveness in vivo in anaesthetised guinea pigs (NKA test stimulus)
# Design: species or system guinea pig
# condition.parameters: guinea pig, iv, cumulative dosing, NKA stimulus (200 pmol/animal i.v.) 1 min. after administration; colonic pressure; read-out: ED50 Colonic pressure, i.v. after 1 min. (cumulative)
readout.label: ED50 (µmol/kg)

The cases that follow already have their ED50 on record.
- compound: "CC(=O)OC[C@@H](OC(C)=O)[C@H](OC(C)=O)[C@@H](OC(C)=O)C(c1ccsc1)N1CCN(CC[C@H](CN(C)C(=O)c2ccccc2)c2ccc(Cl)c(Cl)c2)CC1 (some centres unmarked)"
  readout.label: "ED50"
  test.result: 0.042
- compound: "CN(C[C@@H](CCN1CCN(C(c2ccsc2)[C@H](O)[C@H](O)CO)CC1)c1ccc(Cl)c(Cl)c1)C(=O)c1ccccc1 (some centres unmarked)"
  readout.label: "ED50"
  test.result: 0.041
- compound: "CN(C[C@@H](CCN1CCN(C(c2ccsc2)[C@H](O)[C@@H](O)[C@H](O)CO)CC1)c1ccc(Cl)c(Cl)c1)C(=O)c1ccccc1 (some centres unmarked)"
  readout.label: "ED50"
  test.result: 0.017

1. CN(CC(CCN1CCN(C(c2ccco2)[C@H](O)[C@@H](O)[C@H](O)CO)CC1)c1ccc(Cl)c(Cl)c1)C(=O)c1ccccc1 (mixture of isomers)
2. CN(C[C@@H](CCN1CCN(C(c2ccsc2)[C@H](O)CO)CC1)c1ccc(Cl)c(Cl)c1)C(=O)c1ccccc1 (some centres unmarked)
Given 1 and given 2 , which shows the smaller recorded ED50? Answer = label. 1
(1: 0.019 µmol/kg, 2: 0.041 µmol/kg)
